These entries and their values trace back to patent US20240336686A1.

Catalogue of binders with associated pKd
Biological target: T1, Human SIRPα v2 (human)
T1 construct: also called human SIRPα v2 (antigen of the Biacore assay)
Test: SPR (Biacore), 1:1 binding model
Method: The humanized antibodies were characterized for binding affinity against human SIRPα v1, human SIRPα v2 using Surface Plasmon Resonance technology (Biacore system). The association and dissociation curves were fit with 1:1 binding model, and the Ka/Kd/KD values for each antibody were calculated.
Would you please state pKd, meaning minus log10 of the concentration in mol/L, as a bare number?

binder | experimental_endpoint | value_observed
Humanized anti-SIRPα antibody hu025.059 (antibody, V domains shown, Humanized from C25) VH: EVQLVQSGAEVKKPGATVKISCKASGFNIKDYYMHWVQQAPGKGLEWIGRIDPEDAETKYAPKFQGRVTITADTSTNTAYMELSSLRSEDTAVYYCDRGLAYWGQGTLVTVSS VL: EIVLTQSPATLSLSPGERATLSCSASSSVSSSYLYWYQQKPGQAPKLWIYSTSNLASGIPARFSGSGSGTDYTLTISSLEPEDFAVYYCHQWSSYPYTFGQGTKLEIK | pKd | 8.56

# next binder below
In: // lookup pKd for Humanized anti-SIRPα antibody hu025.023 (antibody, V domains shown, Humanized from C25) VH: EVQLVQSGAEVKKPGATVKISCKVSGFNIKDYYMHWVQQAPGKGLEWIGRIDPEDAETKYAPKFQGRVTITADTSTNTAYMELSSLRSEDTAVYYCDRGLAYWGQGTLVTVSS VL: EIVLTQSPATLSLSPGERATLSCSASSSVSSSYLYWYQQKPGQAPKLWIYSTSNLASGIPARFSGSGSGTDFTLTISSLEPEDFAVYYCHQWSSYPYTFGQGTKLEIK
Out: 8.56
